# Test system: Plasmodium yoelii
# ASSAY_PROCEDURE: Antimalarial activity against liver stages of Plasmodium yoelii assessed as inhibition of cytochrome bc1 complex
# Assay type: functional, organism-based
pIC50: −log10 of the molar value.
MEASUREMENT_KIND: pIC50

[[record]]
molecule = "CCCCCCCCCCOc1cc2c(O)c(C(=O)OCC)cnc2cc1OCC [DECOQUINATE]"
system_tested = "Plasmodium yoelii"
measurement_kind = "pIC50"
quantitative_readout = 9.75


====

# Tested on: Plasmodium berghei
# ASSAY_PROCEDURE: Antimalarial activity against liver stages of Plasmodium berghei infected in human HepG2 cells assessed as growth inhibition of hepatic parasite before invasion of hepatocytes incubated for 48 hrs followed by compound wash out measured after 3 days by RT-PCR analysis
# Format: functional, organism-based
MEASUREMENT_KIND: IC50

[[record]]
molecule = "C=CCS[S+]([O-])CC=C (stereo unspecified)"
measurement_kind = "IC50"
result = "6.8 µM"


====

# Tested on: Plasmodium yoelii
# ASSAY_PROCEDURE: Antimalarial activity against liver stages of Plasmodium yoelii 265 BY infected in Swiss mouse after 48 hrs by fluorescence microscopy
# Type: functional, organism-based
# CONDITION_INFO: Plasmodium yoelii, 265 BY, 48 h
pIC50: −log10 of the molar value.
Label True for high-side pIC50 (at or above 5) and False for low-side pIC50 (below it).

[[record]]
compound = "COc1cc([C@H](O)[C@@H](C)Oc2c(OC)cccc2OC)cc(OC)c1OC"
class_label = "True"

[[record]]
compound = "COc1cc([C@H](O)[C@H](C)Oc2c(OC)cc(C)cc2OC)cc(OC)c1OC"
class_label = "False"

[[record]]
compound = "COc1cc([C@H](O)[C@H](C)Oc2c(OC)cccc2OC)cc(OC)c1OC"
class_label = "False"

[[record]]
compound = "COc1cc([C@H](O)[C@@H](C)Oc2c(OC)cc(C)cc2OC)cc(OC)c1OC"
class_label = "True"

[[record]]
compound = "COc1cccc(OC)c1OC(C)[C@@H](O)c1ccc2c(c1)OC(F)(F)O2 (mixture of isomers; 143)"
class_label = "False"

[[record]]
compound = "COc1cc([C@H](O)[C@H](C)Oc2c(OC)cc(-c3ccccc3)cc2OC)cc(OC)c1OC"
class_label = "True"

[[record]]
compound = "COc1cc([C@H](O)[C@@H](C)Oc2c(OC)cc(-c3ccccc3)cc2OC)cc(OC)c1OC"
class_label = "True"


====

# Tested on: Plasmodium yoelii yoelii
# ASSAY_PROCEDURE: Antimalarial activity against liver stages of Plasmodium yoelii yoelii in mouse hepatocytes assessed as growth inhibition
# Type: functional, organism-based
# CONDITION_INFO: Hepatocyte
pIC50: −log10 of the molar value.
MEASUREMENT_KIND: pIC50

[[record]]
compound_structure = "NCCCCN(CCCN)C(=O)CCCCCCCCCCCOCc1ccc2c(c1)[C@@H]1C[C@]3(CCCCO3)NC3=N[C@]4(CCCCO4)C[C@H]2N31"
system_tested = "Plasmodium yoelii yoelii"
quantitative_readout = 5.04


====

Measured pIC50 by item
# Tested on: Plasmodium falciparum
# ASSAY_PROCEDURE: Antimalarial activity against liver stages of Plasmodium falciparum after 96 hrs
# Assay type: functional, organism-based
pIC50: −log10 of the molar value.
MEASUREMENT_KIND: pIC50

[[record]]
compound_structure = "C[C@]1(C(=O)O)CSC(c2ncccc2O)=N1"
quantitative_readout = 5.54

[[record]]
compound_structure = "CC(=O)N(O)CCCCCNC(=O)CCC(=O)N(O)CCCCCNC(=O)CCC(=O)N(O)CCCCCN"
quantitative_readout = 5.47


Reference source: ChEMBL document CHEMBL2086285
